# assayed.target: 3-pTza peptide (Biotin-AminocaproicAcid-AGAG-3-pTza-AGAG)
# protocol: BLI
readout.kind: koff (s⁻¹)
The reply should be a number in s⁻¹, with the unit left off.

Qu. Given hSC44.13 IgG (antibody, V domains shown) VH: EVQLVESGGGLVQPGGSLRLSCTASGFSIDSYGFSWVRQAPGKGLEHIGYLTAGGRAFYASWAKSRSTITRNTNENTVTLKMNSLRAEDTAVYYCAKLGTGSPVAIWG VL: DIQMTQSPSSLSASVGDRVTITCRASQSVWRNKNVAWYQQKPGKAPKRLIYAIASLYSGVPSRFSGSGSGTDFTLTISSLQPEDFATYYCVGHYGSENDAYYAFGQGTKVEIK , respond with its koff.
Ans. 7.37e-05

Qu. Item hSC44.22 IgG (antibody, V domains shown) VH: EVQLVESGGGLVQPGGSLRLSCTASGFSIDSYGFSWVRQAPGKGLEHIGYLTAGGRAFYASWAKSRSTITRNTNENTVTLKMNSLRAEDTAVYYCAKLGTGTPVAIWG VL: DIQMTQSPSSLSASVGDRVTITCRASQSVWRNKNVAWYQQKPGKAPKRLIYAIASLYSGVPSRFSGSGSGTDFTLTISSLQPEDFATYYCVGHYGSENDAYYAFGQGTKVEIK : provide koff
Ans. 4.49e-05

Qu. Quote koff reported for hSC44.8 IgG (antibody, V domains shown) VH: EVQLVESGGGLVQPGGSLRLSCTASGFSIDSYGFSWVRQAPGKGLEHIGYLTAGGRAFYASWAKSRSTITRNTNENTVTLKMNSLRAEDTAVYYCAKIGTGSRVAIWG VL: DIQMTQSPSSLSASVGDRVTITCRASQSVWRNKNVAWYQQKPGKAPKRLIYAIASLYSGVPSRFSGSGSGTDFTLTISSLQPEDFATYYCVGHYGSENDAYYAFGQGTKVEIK please.
Ans. 6.66e-05
